tested on: Acinetobacter baumannii ARLG-1809 OXA-23; test: MIC test of compounds in combination with antibiotics, Acinetobacter baumannii ARLG-1809; conditions: Biapenem + compound (8 μg/mL)
Readout Kind: MIC of biapenem in combination with compound, Acinetobacter baumannii ARLG-1809 OXA-23 (µg/mL)

CC(Sc1ccc2c(c1C(=O)O)OB(O)C1CC21)C1CCOCC1 (single isomer, unassigned) [Compound 17-b] | 4

1: C[C@@H](Sc1ccc2c(c1C(=O)O)OB(O)[C@H]1C[C@@H]21)[C@@H]1CCCO1
2: CC(Sc1ccc2c(c1C(=O)O)OB(O)C1CC21)C1CC1 (single isomer, unassigned) [Compound 16-a]
3: CC(Sc1ccc2c(c1C(=O)O)OB(O)C1CC21)C1CC1 (single isomer, unassigned) [Compound 16-b]
Reorder the items by MIC of biapenem in combination with compound, Acinetobacter baumannii ARLG-1809 OXA-23, least to greatest. # format: label list in the order the request specifies
2, 3, 1
(2: 1 µg/mL, 3: 2 µg/mL, 1: 4 µg/mL)
